src = PubChem BioAssay (EPA / NIEHS)

Read-out: Macrophage colony-stimulating factor (MCSF), CSF1 (gene 1435)
Test: BSK_CASM3C_MCSF: BioMAP Diversity Plus: CASM3C Assay for Macrophage colony-stimulating factor (MCSF) Biomarker Activity (AID 2283044);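 also: M-CSF protein amount quantified by ELISA after 24 h exposure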
Details: primary human coronary artery smooth muscle cells; actives raise or lower the signal
Active and inactive are the calls of the source. The calls were made as follows: active = hit-call score of the fitted dose curve at least 0.9, where 1 is the maximum; inactive = score below 0.9.
Labels: y for active, n for inactive

- COMPOUND: "COc1ccc(C(=O)Nc2nc3ccccc3c(NCc3ccccc3)c2C#N)cc1"
  CLASS_ASSIGNMENT: "n"
- COMPOUND: "Cn1cnc2c1c(=O)[nH]c(=O)n2C"
  CLASS_ASSIGNMENT: "n"
- COMPOUND: "CCCCc1nc2cccnc2n1Cc1ccc(-c2ccccc2-c2nnn[nH]2)cc1"
  CLASS_ASSIGNMENT: "n"
- COMPOUND: "O=C(O)CC(O)(CC(=O)O)C(=O)O"
  CLASS_ASSIGNMENT: "n"
- COMPOUND: "CCN(CC)CCOc1ccc(C(=C(Cl)c2ccccc2)c2ccccc2)cc1"
  CLASS_ASSIGNMENT: "y"
- COMPOUND: "CC(=O)OCC(COC(C)=O)OC(C)=O"
  CLASS_ASSIGNMENT: "n"
- COMPOUND: "CC(COCC(C)OC(=O)c1ccccc1)OC(=O)c1ccccc1 (stereo not given)"
  CLASS_ASSIGNMENT: "n"
- COMPOUND: "CS(=O)(=O)c1ccc([C@@H](C[C@H]2CCC(=O)C2)C(=O)Nc2cnccn2)cc1Cl"
  CLASS_ASSIGNMENT: "n"
- COMPOUND: "O=C1O[C@H]([C@H](O)CO)C(O)=C1O"
  CLASS_ASSIGNMENT: "n"
- COMPOUND: "Oc1ccccc1O"
  CLASS_ASSIGNMENT: "y"
- COMPOUND: "NC(=Nc1ccccc1)Nc1ccccc1"
  CLASS_ASSIGNMENT: "y"
- COMPOUND: "CC(N)=O"
  CLASS_ASSIGNMENT: "n"
- COMPOUND: "COc1ccc(OC(F)(F)F)cc1CN[C@H]1CCCN[C@H]1c1ccccc1"
  CLASS_ASSIGNMENT: "n"
- COMPOUND: "CCc1cc(C2=C(C(=O)O)N(c3ccccc3C(F)(F)F)S(=O)(=O)c3ccccc32)cc2c1OCO2"
  CLASS_ASSIGNMENT: "y"
- COMPOUND: "N[C@@H](Cc1c[nH]c2ccccc12)C(=O)O"
  CLASS_ASSIGNMENT: "n"
- COMPOUND: "CSc1ccc(Oc2ccc(S(N)(=O)=O)cc2CN(C)C)cc1C"
  CLASS_ASSIGNMENT: "n"
- COMPOUND: "CN(C)C(=O)NC1(c2ccccc2)CCN(CC[C@@]2(c3ccc(F)c(F)c3)CN(C(=O)c3ccccc3)CCO2)CC1"
  CLASS_ASSIGNMENT: "n"
- COMPOUND: "O=[Si]=O"
  CLASS_ASSIGNMENT: "n"
- COMPOUND: "CCCCC(CC)COP(=O)(OCC(CC)CCCC)OCC(CC)CCCC (stereo not given)"
  CLASS_ASSIGNMENT: "n"
- COMPOUND: "CC(C)(O)c1ccc(CNC(=O)c2cccnc2Oc2ccc(F)cc2)cc1"
  CLASS_ASSIGNMENT: "n"
- COMPOUND: "C=CCc1ccc(OC)c(OC)c1"
  CLASS_ASSIGNMENT: "n"
- COMPOUND: "CN(C)CCCN(C)CCCN(C)C"
  CLASS_ASSIGNMENT: "n"
- COMPOUND: "CCCCCCC(CCCCCCCCCCC(=O)OCC(COC(C)=O)OC(C)=O)OC(C)=O (stereo not given)"
  CLASS_ASSIGNMENT: "n"
- COMPOUND: "Cc1cn([C@H]2C=C[C@@H](CO)O2)c(=O)[nH]c1=O"
  CLASS_ASSIGNMENT: "n"
- COMPOUND: "C=CCCCCCCCCCCCC"
  CLASS_ASSIGNMENT: "n"
